biological target: GTP:AMP phosphotransferase AK3, mitochondrial (Rattus norvegicus)
Sequence (P29411 whole entry): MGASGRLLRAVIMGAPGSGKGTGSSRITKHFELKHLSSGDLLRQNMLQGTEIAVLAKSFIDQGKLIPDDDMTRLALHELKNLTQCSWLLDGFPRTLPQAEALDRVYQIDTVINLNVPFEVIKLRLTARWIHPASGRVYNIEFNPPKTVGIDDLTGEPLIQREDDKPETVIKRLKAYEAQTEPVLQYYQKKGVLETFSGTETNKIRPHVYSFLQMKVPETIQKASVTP
pKi: −log10 of the molar value.
reported.metric: pKi

INSERT INTO measurements (compound, test_value) VALUES
  ('CC(=O)NCCCCCCNc1ncnc2c1ncn2[C@@H]1O[C@H](COP(=O)(O)OP(=O)(O)OP(=O)(O)O)[C@@H](O)[C@H]1O', 2.32);

1: Nc1ncnc2c1nc(SCCO)n2[C@@H]1O[C@H](COP(=O)(O)OP(=O)(O)OP(=O)(O)O)[C@@H](O)[C@H]1O
2: Nc1ncnc2c1nc(SCCCCO)n2[C@@H]1O[C@H](COP(=O)(O)OP(=O)(O)OP(=O)(O)O)[C@@H](O)[C@H]1O
Which value of pKi is smaller, the one for 1 or the one for 2 ? Select an item and report its label.
1
(1: 3.66, 2: 3.89)
